- protocol summary: Caco-2 permeability
- Format: in vitro ADME
- condition context: human
result type: Papp (×10⁻⁶ cm/s)
Give the value in ×10⁻⁶ cm/s but do not write ×10⁻⁶ cm/s after it.

query: Need Papp of `CNc1nc(Nc2ccc(-n3cnc(C)n3)c(OC)c2)nc2c1CC[C@H]2c1ccc(F)cc1` , thanks.
result: 3.5

* * *

- protocol summary: pharmacokinetics in rat
- condition context: Sprague-Dawley, in vivo, iv, 2 mg/kg
result type: clearance at 24 h (mL/min/kg)
Give the value in mL/min/kg but do not write mL/min/kg after it.

query: Need clearance at 24 h of CNc1nc(Nc2ccc(-n3cnc(C)n3)c(OC)c2)nc2c1CC[C@H]2c1ccc(F)cc1 [Compound 4] , thanks.
result: 11.2

* * *

- protocol summary: pharmacokinetics in dog
- condition context: male, beagle, in vivo, iv, 1 mg/kg
result type: clearance at 24 h (mL/min/kg)
Give the value in mL/min/kg but do not write mL/min/kg after it.

query: Need clearance at 24 h of `CNc1nc(Nc2ccc(-n3cnc(C)n3)c(OC)c2)nc2c1CC[C@H]2c1ccc(F)cc1` , thanks.
result: 12.5

* * *

- subject of test: CYP3A4 (Homo sapiens, UniProt P08684)
- Sequence (P08684 whole entry): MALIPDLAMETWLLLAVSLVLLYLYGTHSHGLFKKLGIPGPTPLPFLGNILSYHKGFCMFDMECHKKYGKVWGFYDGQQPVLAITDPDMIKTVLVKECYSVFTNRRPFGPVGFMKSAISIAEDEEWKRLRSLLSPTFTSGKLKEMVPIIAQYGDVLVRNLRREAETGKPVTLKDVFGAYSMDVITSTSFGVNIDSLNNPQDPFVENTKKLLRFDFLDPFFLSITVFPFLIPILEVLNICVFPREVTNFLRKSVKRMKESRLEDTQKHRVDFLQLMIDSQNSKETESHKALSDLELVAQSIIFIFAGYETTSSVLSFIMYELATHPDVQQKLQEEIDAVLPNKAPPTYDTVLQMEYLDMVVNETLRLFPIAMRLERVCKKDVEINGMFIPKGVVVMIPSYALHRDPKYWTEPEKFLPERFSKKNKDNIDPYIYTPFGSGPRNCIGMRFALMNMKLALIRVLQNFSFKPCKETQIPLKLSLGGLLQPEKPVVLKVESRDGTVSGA
- protocol summary: recombinant CYP3A4 inhibition
result type: pIC50
Value format note: pIC50 is -log10 of concentration (mol/L); just state the number.

query: Need pIC50 of `CNc1nc(Nc2ccc(-n3cnc(C)n3)c(OC)c2)nc2c1CC[C@H]2c1ccc(F)cc1` , thanks.
result: 6.29

* * *

- System: rest of the CYP isoforms tested (other than the CYP2C subfamily)
- protocol summary: CYP inhibition in human liver microsomes, rest of isoforms
- Assay type: in vitro ADME
pIC50: −log10 of the molar value.
result type: pIC50

query: Need pIC50 of `CNc1nc(Nc2ccc(-n3cnc(C)n3)c(OC)c2)nc2c1CC[C@H]2c1ccc(F)cc1` , thanks.
result: < 4.77

* * *

- protocol summary: pharmacokinetics in cynomolgus monkey
- condition context: male, in vivo, iv, 1 mg/kg
result type: clearance at 24 h
Numeric answer plus unit only.

query: Need clearance at 24 h of `CNc1nc(Nc2ccc(-n3cnc(C)n3)c(OC)c2)nc2c1CC[C@H]2c1ccc(F)cc1` , thanks.
result: 31.3 mL/min/kg
